Target: T1, human C-MET His tagged, monomeric (human, UniProt P08581 25-932)
T1 construct: also called monomeric human C-MET; biotinylated human C-MET-His
T1 sequence (P08581 25-932): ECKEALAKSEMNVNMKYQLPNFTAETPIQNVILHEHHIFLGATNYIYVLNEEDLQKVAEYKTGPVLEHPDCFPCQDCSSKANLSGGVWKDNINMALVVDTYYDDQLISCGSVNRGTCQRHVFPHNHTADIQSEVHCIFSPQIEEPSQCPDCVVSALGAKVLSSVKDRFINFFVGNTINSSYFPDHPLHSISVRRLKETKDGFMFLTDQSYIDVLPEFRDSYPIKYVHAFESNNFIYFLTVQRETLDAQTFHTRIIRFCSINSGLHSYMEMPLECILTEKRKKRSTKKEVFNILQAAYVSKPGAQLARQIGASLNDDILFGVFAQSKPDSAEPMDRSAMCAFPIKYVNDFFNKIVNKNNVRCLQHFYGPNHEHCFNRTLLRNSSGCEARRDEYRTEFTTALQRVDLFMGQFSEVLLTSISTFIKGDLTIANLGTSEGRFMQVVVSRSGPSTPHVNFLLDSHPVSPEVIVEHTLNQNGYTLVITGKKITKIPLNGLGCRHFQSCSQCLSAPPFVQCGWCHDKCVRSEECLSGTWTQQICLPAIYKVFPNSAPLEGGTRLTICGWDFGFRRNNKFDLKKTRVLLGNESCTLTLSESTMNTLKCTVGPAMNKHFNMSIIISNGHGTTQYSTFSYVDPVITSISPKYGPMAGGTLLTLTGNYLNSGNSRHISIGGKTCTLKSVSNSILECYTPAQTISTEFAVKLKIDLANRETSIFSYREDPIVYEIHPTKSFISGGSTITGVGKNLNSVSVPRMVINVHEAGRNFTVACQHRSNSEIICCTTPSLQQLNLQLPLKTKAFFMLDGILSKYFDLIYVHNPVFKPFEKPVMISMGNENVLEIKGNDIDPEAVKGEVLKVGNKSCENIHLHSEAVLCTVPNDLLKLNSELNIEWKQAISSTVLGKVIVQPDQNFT
Assay: SPR Biacore, IgG captured, monomeric C-MET-His analyte
Decision: koff compared against 0.0001 s⁻¹; not below it gives yes, below it gives no.

Query block: Evaluate 07C10 (antibody, IgG4, V domains shown) VH: QVQLVQSGAEVKKPGASVKVSCKASGYIFTAYSMHWVRQAPGQGLEWMGIIKPSNGSTNYAQKFQGRVTMTRDTSTSTVYMELSSLRSEDTAVYYCARAEITTEFDYWGQGTLVTVSS VL: EIVLTQSPGTLSLSPGERATLSCRASQSVESYAQSYLHWYQQKPGQAPRLLIYRGSTRESGIPDRFSGSGSGTDFTLTISRLEPEDFAVYYCQQSKEEPLTFGGGTKVEIK : koff at minimum 0.0001 s⁻¹?
Result block: no

Query block: State whether the measured koff reaches 0.0001 s⁻¹, counting equality as reaching it, for MH6 (antibody, IgG4, V domains shown) VH: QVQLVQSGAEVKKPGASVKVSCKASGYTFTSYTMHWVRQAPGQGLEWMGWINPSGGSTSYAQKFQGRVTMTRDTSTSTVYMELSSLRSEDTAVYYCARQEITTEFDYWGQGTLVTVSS VL: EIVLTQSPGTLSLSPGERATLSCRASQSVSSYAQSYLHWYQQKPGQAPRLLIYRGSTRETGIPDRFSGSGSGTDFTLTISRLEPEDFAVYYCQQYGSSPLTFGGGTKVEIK
Result block: yes

Query block: State whether the measured koff reaches 0.0001 s⁻¹, counting equality as reaching it, for 08G07 (antibody, human IgG4, V domains shown) VH: QVQLVQSGAEVKKPGASVKVSCKASGYTFTSYTMHWVRQAPGQGLEWMGWINPSGGLANYAQKFQGRVTMTRDTSTSTVYMELSSLRSEDTAVYYCARSEITTDFDYWGQGTLVTVSS VL: EIVLTQSPGTLSLSPGERATLSCRASQSVDSYANSYLHWYQQKPGQAPRLLIYRGSTRESGIPDRFSGSGSGTDFTLTISRLEPEDFAVYYCQQSKSEPLTFGGGTKVEIK
Result block: no

Query block: Threshold query (koff >= 0.0001 s⁻¹) on MH8 (antibody, IgG4, V domains shown) VH: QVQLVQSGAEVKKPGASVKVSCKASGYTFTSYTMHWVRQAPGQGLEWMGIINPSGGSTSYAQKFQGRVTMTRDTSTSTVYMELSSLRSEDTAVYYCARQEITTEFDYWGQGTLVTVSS VL: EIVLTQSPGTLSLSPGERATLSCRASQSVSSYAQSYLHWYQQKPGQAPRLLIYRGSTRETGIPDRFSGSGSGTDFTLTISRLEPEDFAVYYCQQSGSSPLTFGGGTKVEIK
Result block: yes

Query block: Could you please find out whether MH10 (antibody, IgG4, V domains shown) VH: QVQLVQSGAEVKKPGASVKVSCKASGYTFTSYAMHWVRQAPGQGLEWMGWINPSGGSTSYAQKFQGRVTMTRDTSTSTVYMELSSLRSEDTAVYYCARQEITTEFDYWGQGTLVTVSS VL: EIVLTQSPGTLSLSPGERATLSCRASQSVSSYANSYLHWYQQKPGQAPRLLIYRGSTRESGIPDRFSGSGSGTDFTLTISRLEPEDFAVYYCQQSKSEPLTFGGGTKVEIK has koff that meets 0.0001 s⁻¹ or exceeds it?
Result block: no
